test: Phase I single-dose open-label pharmacokinetic study in participants with normal hepatic function and varying degrees of hepatic impairment; format: in vivo, human; settings: human, plasma, po, 200 mg; single oral 200 mg belumosudil, fed; normal hepatic function; geometric mean (CV %)
VALUE KIND: Cmax (ng/mL)
// units = ng/mL; emit number, no label

Sample CC(C)NC(=O)COc1cccc(-c2nc(Nc3ccc4[nH]ncc4c3)c3ccccc3n2)c1 [belumosudil] — what was its Cmax?
2190

###

experiment: Phase I single-dose open-label pharmacokinetic study in participants with normal hepatic function and varying degrees of hepatic impairment; assay type: in vivo, human; details: human, plasma, po, 200 mg; single oral 200 mg belumosudil, fed; mild hepatic impairment; geometric mean (CV %)
VALUE KIND: AUC(0-t) at 24 h (ng·h/mL)
The reply should be a number in ng·h/mL, with the unit left off.

What measured AUC(0-t) at 24 h goes with CC(C)NC(=O)COc1cccc(-c2nc(Nc3ccc4[nH]ncc4c3)c3ccccc3n2)c1 ?
15400

###

Assay: Phase I single-dose open-label pharmacokinetic study in participants with normal hepatic function and varying degrees of hepatic impairment
Assay type: in vivo, human
Details: human, plasma, po, 200 mg; single oral 200 mg belumosudil, fed; normal hepatic function; geometric mean (CV %)
Excerpt: The primary objective was to assess the pharmacokinetic (PK) of belumosudil following a single oral dose of belumosudil in participants with mild, moderate, or severe hepatic impairment compared to healthy participants with normal hepatic function. […]
VALUE KIND: AUC(0-t) at 24 h
Just the number plus its unit, please.

// returns reported AUC(0-t) at 24 h for input CC(C)NC(=O)COc1cccc(-c2nc(Nc3ccc4[nH]ncc4c3)c3ccccc3n2)c1
11300 ng·h/mL

###

assay: Phase I single-dose open-label pharmacokinetic study in participants with normal hepatic function and varying degrees of hepatic impairment; type: in vivo, human; details: human, plasma, po, 200 mg; single oral 200 mg belumosudil, fed; severe hepatic impairment; geometric mean (CV %)
VALUE KIND: AUC(0-t) (ng·h/mL)
Entry rule: numbers only, all in ng·h/mL.

Sample CC(C)NC(=O)COc1cccc(-c2nc(Nc3ccc4[nH]ncc4c3)c3ccccc3n2)c1 — what was its AUC(0-t)?
29600

###

assay: Phase I single-dose open-label pharmacokinetic study in participants with normal hepatic function and varying degrees of hepatic impairment; format: in vivo, human; settings: human, plasma, po, 200 mg; single oral 200 mg belumosudil, fed; severe hepatic impairment; geometric mean (CV %)
VALUE KIND: CL/F
Answer by giving the amount and then stating its unit.

Using the record for CC(C)NC(=O)COc1cccc(-c2nc(Nc3ccc4[nH]ncc4c3)c3ccccc3n2)c1 [belumosudil] , report its CL/F.
110 mL/min

###

Experiment: Phase I single-dose open-label pharmacokinetic study in participants with normal hepatic function and varying degrees of hepatic impairment
Type: in vivo, human
Settings: human, plasma, po, 200 mg; single oral 200 mg belumosudil, fed; normal hepatic function; geometric mean (CV %)
Description: The primary objective was to assess the pharmacokinetic (PK) of belumosudil following a single oral dose of belumosudil in participants with mild, moderate, or severe hepatic impairment compared to healthy participants with normal hepatic function. […]
VALUE KIND: AUC(0-inf) (ng·h/mL)
# value in ng·h/mL; strip the unit string

Requested read-out: AUC(0-inf). Entry: CC(C)NC(=O)COc1cccc(-c2nc(Nc3ccc4[nH]ncc4c3)c3ccccc3n2)c1
12800
